test system: 454973-116-R2-J3-PDC spheroids, viability, % test/control; test: Anticancer human tumor 454973-116-R2-J3-PDC patient-derived pancreatic carcinoma cell line growth inhibition [GQUAD]; conditions: curve of first compound; second compound 0.0316 µM; spheroids with HUVEC and MSC
metric.name: pIC50
pIC50 here is simply -log10 of the concentration when that concentration is written in mol/L.

Past entries and their recorded results:
INSERT INTO assay_data (molecule, endpoint_value) VALUES
  ('COc1cc(C2c3cc4c(cc3C(OC3OC5COC(C)OC5C(O)C3O)C3COC(=O)C23)OCO4)cc(OC)c1O (stereo not given) + Cc1[nH]c2ccc(F)cc2c1-c1nc2c3cccnc3c3ncccc3c2[nH]1', 5.95),
  ('CCc1c2c(nc3ccc(O)cc13)-c1cc3c(c(=O)n1C2)COC(=O)[C@]3(O)CC + CN(C)c1ccc(Nc2c3ccc(NC(=O)CCN4CCCC4)cc3nc3cc(NC(=O)CCN4CCCC4)ccc23)cc1', 8.78);

Here's the next entry for you.
Query: pIC50; subject: CC1COCCN1c1cc(C2(S(C)(=N)=O)CC2)nc(-c2ccnc3[nH]ccc23)n1 (stereo not given) + CN(C)c1ccc(Nc2c3ccc(NC(=O)CCN4CCCC4)cc3nc3cc(NC(=O)CCN4CCCC4)ccc23)cc1
5.27

---

System: 454973-116-R2-J3-PDC spheroids, viability, % test/control
Assay: Anticancer human tumor 454973-116-R2-J3-PDC cell line growth inhibition [GQUAD];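 note: spheroids exposed to compounds for seven days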;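 for viability, T/C: 100% = DMSO vehicle control viability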
Details: second compound 3.16 µM; first compound 3.16 µM; stronger effect = lower value; spheroids with HUVEC and MSC
Text: DNA G-quadruplex Stabilizer Agents in Combinations in Complex Spheroids A high-throughput screen of multi-cell type tumor spheroids was designed to identify active combinations of DNA G-quadruplex stabilizer agents and targeted small molecules. […] Compounds. […] If the clinical Cmax for an agent had not been determined, the highest concentration tested was 10 microM. […]
Please note: viability, T/C exactly at 30% is 0. Only values below 30% get 1.

Here's what some known entries look like.
INSERT INTO measurements (molecule, qualitative_label) VALUES
  ('CC(=O)O[C@H]1C(=O)[C@@]2(C)[C@H]([C@H](OC(=O)c3ccccc3)[C@]3(O)C[C@H](OC(=O)[C@H](O)[C@@H](NC(=O)c4ccccc4)c4ccccc4)C(C)=C1C3(C)C)[C@]1(OC(C)=O)CO[C@@H]1C[C@@H]2O + Cc1[nH]c2ccc(F)cc2c1-c1nc2c3cccnc3c3ncccc3c2[nH]1', 1),
  ('CC(C)n1c(=O)n(C)c2cnc3cc(F)c(-c4ccc(OCCCN5CCCCC5)nc4)cc3c21 + Cc1cnc(CNC(=O)c2c(=O)c3ccc(N4CCCN(C)CC4)nc3n3c2sc2ccccc23)cn1', 0);

Just wondering, is viability, T/C of O=c1[nH]cc(F)c(=O)[nH]1 + Cc1[nH]c2ccc(F)cc2c1-c1nc2c3cccnc3c3ncccc3c2[nH]1 below 30%?
0

Just wondering, is viability, T/C of O=c1[nH]cc(F)c(=O)[nH]1 + Cc1cnc(CNC(=O)c2c(=O)c3ccc(N4CCCN(C)CC4)nc3n3c2sc2ccccc23)cn1 below 30%?
0

Just wondering, is viability, T/C of C#Cc1c(F)ccc2cc(O)cc(-c3ncc4c(N5CC6CCC(C5)N6)nc(OCC56CCCN5CC(F)C6)nc4c3F)c12 (stereo unspecified) + Cc1[nH]c2ccc(F)cc2c1-c1nc2c3cccnc3c3ncccc3c2[nH]1 below 30%?
1

Just wondering, is viability, T/C of COc1cc(C2c3cc4c(cc3C(OC3OC5COC(C)OC5C(O)C3O)C3COC(=O)C23)OCO4)cc(OC)c1O (stereo unspecified) + CN(C)c1ccc(Nc2c3ccc(NC(=O)CCN4CCCC4)cc3nc3cc(NC(=O)CCN4CCCC4)ccc23)cc1 below 30%?
0

Just wondering, is viability, T/C of COc1cc(C2c3cc4c(cc3C(OC3OC5COC(C)OC5C(O)C3O)C3COC(=O)C23)OCO4)cc(OC)c1O (stereo unspecified) + Cc1[nH]c2ccc(F)cc2c1-c1nc2c3cccnc3c3ncccc3c2[nH]1 below 30%?
1

Just wondering, is viability, T/C of Cc1cccc(N(C)C(=O)C2C(O)CCN2c2nc(C)cc(C(F)(F)F)c2C#N)c1 (stereo unspecified) + CN(C)c1ccc(Nc2c3ccc(NC(=O)CCN4CCCC4)cc3nc3cc(NC(=O)CCN4CCCC4)ccc23)cc1 below 30%?
0

Just wondering, is viability, T/C of CC1COCCN1c1cc(-c2ccnn2C)c2ccnc(-c3ccn[nH]3)c2n1 (stereo unspecified) + Cc1[nH]c2ccc(F)cc2c1-c1nc2c3cccnc3c3ncccc3c2[nH]1 below 30%?
1

Just wondering, is viability, T/C of C=CCn1c(=O)c2cnc(Nc3ccc(N4CCN(C)CC4)cc3)nc2n1-c1cccc(C(C)(C)O)n1 + CN(C)c1ccc(Nc2c3ccc(NC(=O)CCN4CCCC4)cc3nc3cc(NC(=O)CCN4CCCC4)ccc23)cc1 below 30%?
1

Just wondering, is viability, T/C of CC(C)(O)C1CCC(Nc2ccc3ncc(-c4cccc(C(F)(F)F)c4)n3n2)CC1 (stereo unspecified) + Cc1[nH]c2ccc(F)cc2c1-c1nc2c3cccnc3c3ncccc3c2[nH]1 below 30%?
1

---

system: 454973-116-R2-J3-PDC spheroids, viability, % test/control; assay: Anticancer human tumor 454973-116-R2-J3-PDC cell line growth inhibition [GQUAD]; settings: second compound 3.16 µM; first compound 0.000999 µM; stronger effect = lower value; spheroids with HUVEC and MSC;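 note: spheroids exposed to compounds for seven days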;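 for viability, T/C: 100% = DMSO vehicle control viability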
metric.name: viability, T/C (%)
Write the answer as a number in %, unit excluded.

Past entries and their recorded results:
INSERT INTO results (compound, endpoint_value) VALUES
  ('CC[C@@]1(O)C(=O)OCc2c1cc1n(c2=O)Cc2cc3c(CN(C)C)c(O)ccc3nc2-1 + Cc1[nH]c2ccc(F)cc2c1-c1nc2c3cccnc3c3ncccc3c2[nH]1', 97.7),
  ('CCc1c2c(nc3ccc(O)cc13)-c1cc3c(c(=O)n1C2)COC(=O)[C@]3(O)CC + Cc1cnc(CNC(=O)c2c(=O)c3ccc(N4CCCN(C)CC4)nc3n3c2sc2ccccc23)cn1', 59.7),
  ('Cn1ncnc1[C@H]1c2n[nH]c(=O)c3cc(F)cc(c23)N[C@@H]1c1ccc(F)cc1 + CN(C)c1ccc(Nc2c3ccc(NC(=O)CCN4CCCC4)cc3nc3cc(NC(=O)CCN4CCCC4)ccc23)cc1', 90.8),
  ('Cc1[nH]c2ccccc2c1CCNCc1ccc(/C=C/C(=O)NO)cc1 + Cc1cnc(CNC(=O)c2c(=O)c3ccc(N4CCCN(C)CC4)nc3n3c2sc2ccccc23)cn1', 56.4),
  ('CC[C@@]1(O)C(=O)OCc2c1cc1n(c2=O)Cc2cc3c(CN(C)C)c(O)ccc3nc2-1 + CN(C)c1ccc(Nc2c3ccc(NC(=O)CCN4CCCC4)cc3nc3cc(NC(=O)CCN4CCCC4)ccc23)cc1', 98.7);

Here's the next entry for you.
Query: viability, T/C; subject: Cn1ncnc1[C@H]1c2n[nH]c(=O)c3cc(F)cc(c23)N[C@@H]1c1ccc(F)cc1 + Cc1[nH]c2ccc(F)cc2c1-c1nc2c3cccnc3c3ncccc3c2[nH]1
93.9

---

The compounds listed here are annotated with their viability, T/C.
test system: 454973-116-R2-J3-PDC spheroids, viability, % test/control; assay: Anticancer human tumor 454973-116-R2-J3-PDC cell line growth inhibition [GQUAD]; details: second compound 0.0316 µM; first compound 1 µM; stronger effect = lower value; spheroids with HUVEC and MSC;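 note: spheroids exposed to compounds for seven days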;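 for viability, T/C: 100% = DMSO vehicle control viability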
Write the answer as a number in %, unit excluded.

INSERT INTO measurements (compound, metric_name, measurement_unit, endpoint_value) VALUES
  ('CC(C)n1c(=O)n(C)c2cnc3cc(F)c(-c4ccc(OCCCN5CCCCC5)nc4)cc3c21 + Cc1cnc(CNC(=O)c2c(=O)c3ccc(N4CCCN(C)CC4)nc3n3c2sc2ccccc23)cn1', 'viability, T/C', '%', 52.9),
  ('C=CC(=O)N1CCN(c2nc(=O)n(-c3c(C)ccnc3C(C)C)c3nc(-c4c(O)cccc4F)c(F)cc23)C(C)C1 (stereo not given) + Cc1cnc(CNC(=O)c2c(=O)c3ccc(N4CCCN(C)CC4)nc3n3c2sc2ccccc23)cn1', 'viability, T/C', '%', 116),
  ('C=CCn1c(=O)c2cnc(Nc3ccc(N4CCN(C)CC4)cc3)nc2n1-c1cccc(C(C)(C)O)n1 + CN(C)c1ccc(Nc2c3ccc(NC(=O)CCN4CCCC4)cc3nc3cc(NC(=O)CCN4CCCC4)ccc23)cc1', 'viability, T/C', '%', 16.2);

Query: viability, T/C; subject: Cc1cccc(N(C)C(=O)C2C(O)CCN2c2nc(C)cc(C(F)(F)F)c2C#N)c1 (stereo not given) + Cc1[nH]c2ccc(F)cc2c1-c1nc2c3cccnc3c3ncccc3c2[nH]1
102

Query: viability, T/C; subject: COc1ccc([C@@H](O)c2cc(-c3ncnc4cc(N5CCOCC5)ccc34)c(F)cc2Cl)nn1 + CN(C)c1ccc(Nc2c3ccc(NC(=O)CCN4CCCC4)cc3nc3cc(NC(=O)CCN4CCCC4)ccc23)cc1
82.8
